Here's what we have: pIC50 numbers for TTR (Homo sapiens, UniProt P02766).
Quick note: pIC50 means taking -log10 of the concentration in moles per liter.

# compound, endpoint, result
measured = [
    ("Cc1cc(-c2nn[nH]n2)nc(N2CCC(COc3ccccc3C(F)(F)F)C2)n1 (racemic) [(±)-103]", "pIC50", 5.90),
    ("Cc1cc(C(=O)O)nc(N2CCC(COc3c(F)cccc3C(F)(F)F)C2)n1 (racemic) [(±)-89]", "pIC50", 5.72),
    ("O=C(O)c1ccnc(N2CCC(COc3ccccc3C(F)(F)F)C2)n1 (racemic) [(±)-94]", "pIC50", 4.96),
    ("Cc1cc(C(=O)O)nc(N2CCC(COc3cc(F)ccc3C(F)(F)F)C2)n1 (racemic) [(±)-88]", "pIC50", 4.89),
]

Pending compound:
Q: Which pIC50 is listed for O=C(O)c1ccc(F)c(N2CCC(COc3ccccc3C(F)(F)F)C2)c1 (racemic) [(±)-98] ?
Result: 5.73

###

- test.system: TTR (Homo sapiens)
- experiment.description: Fluorescence polarization TTR tetramer binding assay
endpoint: activity/potency at TTR (in words)

# compound, result
measured = [
    ("Cc1cc(C(=O)O)nc(N2CCC(COc3cccnc3C(F)(F)F)C2)n1 (racemic) [(±)-93]", "inactive"),
    ("COc1ccc(C(F)(F)F)c(OCC2CCN(c3nc(C)cc(C(=O)O)n3)C2)c1 (racemic) [(±)-90]", "inactive"),
    ("Cc1cc(C(=O)O)nc(N2CCC(COc3cnccc3C(F)(F)F)C2)n1 (racemic) [(±)-92]", "inactive"),
]

The values you see were collected from paper PMC9578044.
